- Test system: K12877-001-R-J1-PDC complex spheroid viability;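 note: tumour cells co-cultured with HUVEC and mesenchymal stem cells in spheroids; spheroids exposed to agents for one week before readout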
- Experiment: Anticancer human tumor K12877-001-R-J1-PDC patient-derived lung adenocarcinoma cell line growth inhibition [RAS]
- Condition summary: compound 0.01 µM; hits give low values
Readout name: viability, T/C

# example entries with known answers
>  <Molecule>
C=CC(=O)Nc1cc(Nc2nccc(-c3cn(C)c4ccccc34)n2)c(OC)cc1N(C)CCN(C)C

>  <Readout name>
viability, T/C

>  <Assay result>
106% [middle of 4 runs]

$$$$
>  <Molecule>
CCN1CCN(Cc2ccc(Nc3ncc(F)c(-c4cc(F)c5nc(C)n(C(C)C)c5c4)n3)nc2)CC1

>  <Readout name>
viability, T/C

>  <Assay result>
96.5% [middle of 4 runs]

$$$$
>  <Molecule>
O=C(c1ccc(F)c(F)c1Nc1ccc(I)cc1F)N1CC(O)([C@@H]2CCCCN2)C1

>  <Readout name>
viability, T/C

>  <Assay result>
93.5% [middle of 4 runs]

$$$$

Prompt: Dear colleague, I am looking for the recorded viability, T/C of the following molecule: Nc1ccn(C2OC(CO)C(O)C2(F)F)c(=O)n1 (centres undefined)
Response: 90.8% [middle of 4 runs]

Hey, just so you know, these numbers are from PubChem BioAssay AID2060894.
